System Under Test: T1, oligopeptide FATYPSGHLDM (SEQ ID NO: 109)
T1 construct: Synthetic peptide, part of Loop C of AQP3
T1 peptide: FATYPSGHLDM
Protocol: ELISA on coated peptide
Measured Quantity: binding signal (plate reader)
Provide a numeric answer; units are not to be included.

See these solved cases before continuing.
{"columns": ["Binder", "binding signal (plate reader)"],
 "data": [
  ["Antibody C (antibody, mouse IgG2a, kappa, V domains shown, also called anti AQP3 antibody C) VH: QVQLKQSGAELARPGASVKLSCKASGYNFKSYGISWVKQRTGQGLEWIGEIYPGSGNTYYNEKLKGKATLTADKSSSTAYMELRSLTSEDSAVYFCARTYGYDSFPWFAYWGQGTLVTVSS VL: DIVMTQAAPSVPVTPGESVSISCRSSKSLLHSNGNTYLYWFLQRPGQSPQLLIYRVSNLASGVPDRFSGSGSGTAFTLRISRVEAEDEGVYYCMQHLEYPFTFGAGTKLEIKR", 2.8],
  ["BC-H9 (IgG) (antibody, V domains shown, also called anti AQP3 antibody BC-H9) VH: QSLEESGGRLVTPGTPLTLTCTVSGFSLYTYAMGWVRQAPGKGLEWIGIINNDGISSTWYASWVKGRFTISKTSTTMDLKMTSLTTEDTATYFCARGGTSGYDIWGPGTLVTVSL VL: AQGLTQTPSPVSAAVGGTVTINCQSGPSVYKNYLSWYQQKAGQPPKLLIYGASTLASGVPSRFKGSGSGTQFTLTISDVQCDDAATYYCAGGYRGSSDIFAFGGGTEVVVK", 3.75],
  ["Antibody J (antibody, mouse IgG2a, kappa, V domains shown, also called anti AQP3 antibody J) VH: QVHLQQSGTELVKPGASVKLSCEASGYTFTSYWMHWVKQRPGQGLEWIGNINPSNGGTNYNEKFKSKATLTVDKSSSTAYMQLSSLTSEDSAVYYCARGGIYYGNYDYYAMDYWGQGTSVTVSS VL: DIVMTQAAPSVPVTPGESVSISCRSSKSLLHSNGNTYLYWFLQRPGQSPQLLIYRVSNLASGVPDRFSGSGSGTAFTLRISRVEAEDVGVYYCMQHLEYPFTFGGGTKLEIKR", 0.513]
]}

Q: Can you share its binding signal (plate reader)? I mean this binder: SC-F8 (IgG) (antibody, V domains shown, also called anti AQP3 antibody SC-F8) VH: QTVKESGGRLVTPGGSLTLTCTVSRFSLSNYAMTWVRQAPGKGLEWIGIINNDGISSTWYASWVKGRFTISKTSTTMDLKMTSLTTEDTATYFCARGGTSGYDIWGPGTLVTVSL VL: AQVLTQTPSPVSAAVGGTVTINCQSSPSVYKNYLSWYQQKPGQPPKLLIYGASTLASGVPSRFKGSGSGTQFTLTISDVQCDDAATYYCAGGYRGSSDIFAFGGGTEVVVK
A: 3.92

Q: Can you share its binding signal (plate reader)? I mean this binder: SC-B6 (IgG) (antibody, V domains shown, also called anti AQP3 antibody SC-B6) VH: QSVKESGGRLVTPGAPLTLTCTVSGFSLNNYAMTWVRQAPGKGLEWIGIINNDGISSTWYASWVKGRFIISKTSTTVDLKMTSLTTEDTATYFCARGGTSGYDIWGPGTLVTVSL VL: AQGPTQTPSPVSAAVGGTVTINCQSSPSVYKNYLSWYQQKPGQPPKLLIYGASTLASGVPSRFKGSRSGTQFTLTISDVQCDDAATYYCAGGYIGSRDIFSFGGGTEVVVK
A: 3.87

Q: Can you share its binding signal (plate reader)? I mean this binder: BC-B10 (IgG) (antibody, V domains shown, also called anti AQP3 antibody BC-B10) VH: QSVEESGGRLVTPGAPLTLTCTVSRFSLSSYAMTWVRQAPGKGLEWIGIINNDVISSTWYASWVKGRFTISKTSTTMELKMTSLTTEDTATYFCARGGTSGYDIWGPGTLVTVSS VL: AIKMTQTPSPVSAAVGGTVTINCQSSPSVYKNYLSWYQQKPGQPPKLLIYGASTLASGVPSRFKGSGSGTQFTLTISDVQCDDAATYYCAGGYIGSRDIFSFGGGTEVVVK
A: 3.92

This collection of values is drawn from patent US20220298237A1.
